Molecular target: UniProt:P56450
Experiment: cell-based
Measured Kb by item
value-type: Kb (nM)

compound	value-type	reported
C[C@H](O)[C@@H]1CN([C@H](CC2CCCCC2)CN2CCC[C@H]2CN2CCNC2=N)C(=N)N1CC1CCC(C(C)(C)C)CC1 (stereo partly drawn)	Kb	631
CC(C)[C@@H]1CNC(=N)N1C[C@@H]1CCCN1C[C@@H](CC1CCCCC1)N1CCN(CC2CCC(C(C)(C)C)CC2)C1=N (stereo partly drawn)	Kb	631
CCCC1CN(C(CC2CCCCC2)CN2CCCC2CN2C(=N)NCC2C(C)C)C(=N)N1CC1CCC(C(C)(C)C)CC1 (stereo not drawn)	Kb	1260
CC(C)CC1CNC(=N)N1CC1CCCN1CC(Cc1ccccc1)N1CC(C(C)O)N(CC2CCC(C(C)(C)C)CC2)C1=N (stereo not drawn)	Kb	1000
C[C@H](O)[C@@H]1CN([C@H](Cc2ccccc2)CN2CCC[C@H]2CN2CCNC2=N)C(=N)N1CC1CCC(C(C)(C)C)CC1 (stereo partly drawn)	Kb	501
CC(C)CC1CNC(=N)N1CC1CCCN1CC(CC1CCCCC1)N1CC(C(C)O)N(CC2CCC(C(C)(C)C)CC2)C1=N (stereo not drawn)	Kb	631

----------
Measured mMC4R percent maximal stimulatory response (compared to NDP-MSH) by item
Biological target: mMC4R (Mus musculus)
Sequence (P56450 whole entry): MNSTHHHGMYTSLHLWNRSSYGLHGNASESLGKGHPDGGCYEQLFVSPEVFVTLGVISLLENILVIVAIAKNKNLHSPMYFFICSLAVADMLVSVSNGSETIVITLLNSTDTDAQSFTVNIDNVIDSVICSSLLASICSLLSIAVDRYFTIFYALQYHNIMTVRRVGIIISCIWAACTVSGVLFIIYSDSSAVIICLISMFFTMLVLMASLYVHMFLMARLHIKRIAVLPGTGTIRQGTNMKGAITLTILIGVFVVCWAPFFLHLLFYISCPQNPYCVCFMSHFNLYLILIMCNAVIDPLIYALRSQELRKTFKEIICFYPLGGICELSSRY
Test: AlphaScreen cAMP agonist assay, HEK293 cells stably expressing mMC4R
Conditions: at 1 mM; not enough stimulation to determine EC50
value-type: mMC4R percent maximal stimulatory response (compared to NDP-MSH) (% @ 1 mM)

molecule	reported
CC(C)C[C@H]1CNC(=N)N1C[C@@H]1CCCN1C[C@@H](Cc1ccccc1)N1C[C@@H]([C@H](C)O)N(CC2CCC(C(C)(C)C)CC2)C1=N (stereo partly drawn)	60
CCN1C(=N)N([C@H](CC2CCCCC2)CN2CCC[C@H]2CN2C(=N)NC[C@H]2CC(C)C)C[C@H]1[C@H](C)O	20
CC(C)C[C@H]1CNC(=N)N1C[C@H]1CCCN1C[C@H](Cc1ccccc1)N1C[C@H]([C@@H](C)O)N(CC2CCC(C(C)(C)C)CC2)C1=N (stereo partly drawn)	55

----------
Target: UniProt P33033
Assay: AlphaScreen cAMP agonist assay, HEK293 cells stably expressing mMC3R
Measured EC50 by item
value-type: EC50 (µM)

molecule	value-type	bound-sign	reported
CC(C)C[C@@H]1CNC(=N)N1C[C@@H]1CCCN1C[C@@H](Cc1ccccc1)N1CCN(CC2CCC(C(C)(C)C)CC2)C1=N (stereo partly drawn)	EC50	=	0.38
CC(C)C[C@H]1CNC(=N)N1C[C@H]1CCCN1C[C@H](Cc1ccccc1)N1C[C@@H]([C@H](C)O)N(CC2CCC(C(C)(C)C)CC2)C1=N (stereo partly drawn)	EC50	=	5.6
CC(C)CC1CNC(=N)N1CC1CCCN1CC(Cc1ccc2ccccc2c1)N1CC(C(C)O)N(CC2CCC(C(C)(C)C)CC2)C1=N (stereo not drawn)	EC50	=	7
CC(C)C[C@@H]1CNC(=N)N1C[C@@H]1CCCN1C[C@@H](CC1CCCCC1)N1C[C@@H]([C@H](C)O)NC1=N	EC50	>	1000
C[C@H](O)[C@@H]1CN([C@H](CC2CCCCC2)CN2CCC[C@H]2CN2CCNC2=N)C(=N)N1CC1CCC(C(C)(C)C)CC1 (stereo partly drawn)	EC50	=	2.6
CC(C)C[C@@H]1CNC(=N)N1C[C@@H]1CCCN1C[C@@H](CC1CCCCC1)N1C[C@H]([C@@H](C)O)N(CC2CCC(C(C)(C)C)CC2)C1=N (stereo partly drawn)	EC50	=	3.5
CC(C)C[C@H]1CNC(=N)N1C[C@@H]1CCCN1C[C@@H](CC1CCCCC1)N1C[C@@H]([C@H](C)O)N(CC2CCC(C(C)(C)C)CC2)C1=N (stereo partly drawn)	EC50	=	2.9
CCCC1CN(C(CC2CCCCC2)CN2CCCC2CN2C(=N)NCC2C(C)C)C(=N)N1CC1CCC(C(C)(C)C)CC1 (stereo not drawn)	EC50	=	2
CC(C)CC1CNC(=N)N1CC1CCCN1CC(CC1CCCCC1)N1CC(C(C)O)N(CC2CCC(C(C)(C)C)CC2)C1=N (stereo not drawn)	EC50	=	0.24
CCN1C(=N)N([C@H](CC2CCCCC2)CN2CCC[C@H]2CN2C(=N)NC[C@H]2CC(C)C)C[C@H]1[C@H](C)O	EC50	>	1000
CC(C)CC1CNC(=N)N1CC1CCCN1CC(Cc1ccccc1)N1CC(C(C)O)N(CC2CCC(C(C)(C)C)CC2)C1=N (stereo not drawn)	EC50	=	0.27
CC(C)C[C@@H]1CNC(=N)N1C[C@@H]1CCCN1C[C@@H](CC1CCCCC1)N1CCNC1=N	EC50	>	1000

----------
Target: mMC3R (Mus musculus)
Sequence (P33033 whole entry): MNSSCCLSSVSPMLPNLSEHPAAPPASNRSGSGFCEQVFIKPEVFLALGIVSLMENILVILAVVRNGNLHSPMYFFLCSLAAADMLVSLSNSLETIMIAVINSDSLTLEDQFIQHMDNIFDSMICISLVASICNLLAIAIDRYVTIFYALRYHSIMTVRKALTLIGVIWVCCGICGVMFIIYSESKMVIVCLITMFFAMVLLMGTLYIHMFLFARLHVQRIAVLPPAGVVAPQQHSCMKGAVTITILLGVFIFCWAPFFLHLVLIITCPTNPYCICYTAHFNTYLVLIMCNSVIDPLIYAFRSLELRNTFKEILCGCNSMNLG
Experiment: AlphaScreen cAMP agonist assay, HEK293 cells stably expressing mMC3R
Measured log10 EC50 by item
value-type: log10 EC50 (log10 of the value in µM)

molecule	value-type	reported
CC(C)C[C@@H]1CNC(=N)N1C[C@H]1CCCN1C[C@@H](Cc1ccccc1)N1C[C@@H]([C@H](C)O)N(CC2CCC(C(C)(C)C)CC2)C1=N (stereo partly drawn)	log10 EC50	0.18
CCC[C@@H]1CN([C@H](CC2CCCCC2)CN2CCC[C@H]2CN2CCNC2=N)C(=N)N1CC1CCC(C(C)(C)C)CC1 (stereo partly drawn)	log10 EC50	0.52
C[C@H](O)[C@@H]1CN([C@H](Cc2ccccc2)CN2CCC[C@H]2CN2CCNC2=N)C(=N)N1CC1CCC(C(C)(C)C)CC1 (stereo partly drawn)	log10 EC50	0.48
CCC[C@H]1CN([C@H](CC2CCCCC2)CN2CCC[C@H]2CN2C(=N)NC[C@H]2C(C)C)C(=N)N1CC1CCC(C(C)(C)C)CC1 (stereo partly drawn)	log10 EC50	1.43
CC(C)C[C@H]1CNC(=N)N1C[C@@H]1CCCN1C[C@@H](Cc1ccccc1)N1C[C@@H]([C@H](C)O)N(CC2CCC(C(C)(C)C)CC2)C1=N (stereo partly drawn)	log10 EC50	0.58
CC(C)C[C@@H]1CNC(=N)N1C[C@@H]1CCCN1C[C@H](CC1CCCCC1)N1C[C@@H]([C@H](C)O)N(CC2CCC(C(C)(C)C)CC2)C1=N (stereo partly drawn)	log10 EC50	0.95
CC(C)C[C@H]1CNC(=N)N1C[C@H]1CCCN1C[C@@H](Cc1ccccc1)N1C[C@@H]([C@H](C)O)N(CC2CCC(C(C)(C)C)CC2)C1=N (stereo partly drawn)	log10 EC50	0.57
CCCCC(CN1CCCC1CN1C(=N)NCC1CC(C)C)N1CC(C(C)O)N(CC2CCC(C(C)(C)C)CC2)C1=N (stereo not drawn)	log10 EC50	0.34
CC(C)C[C@@H]1CNC(=N)N1C[C@@H]1CCCN1C[C@@H](CC1CCCCC1)N1CCN(CC2CCC(C(C)(C)C)CC2)C1=N (stereo partly drawn)	log10 EC50	0.00

----------
Measured mMC5R percent maximal stimulatory response (compared to NDP-MSH) by item
Biological target: mMC5R (Mus musculus, UniProt P41149)
Sequence (P41149 whole entry): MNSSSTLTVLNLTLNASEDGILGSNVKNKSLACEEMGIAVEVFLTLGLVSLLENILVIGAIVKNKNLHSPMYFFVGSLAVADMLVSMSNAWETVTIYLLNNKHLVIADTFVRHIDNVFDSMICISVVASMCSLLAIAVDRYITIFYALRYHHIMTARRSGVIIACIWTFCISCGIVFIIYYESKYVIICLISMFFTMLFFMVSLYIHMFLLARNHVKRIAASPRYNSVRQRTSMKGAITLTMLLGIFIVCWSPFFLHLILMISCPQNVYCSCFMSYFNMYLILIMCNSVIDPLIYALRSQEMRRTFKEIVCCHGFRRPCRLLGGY
Test: AlphaScreen cAMP agonist assay, HEK293 cells stably expressing mMC5R
Conditions: at 1 mM; not enough stimulation to determine EC50
value-type: mMC5R percent maximal stimulatory response (compared to NDP-MSH) (% @ 1 mM)

molecule	reported
CC(C)CC1CNC(=N)N1CC1CCCN1CC(C)N1CC(C(C)O)N(CC2CCC(C(C)(C)C)CC2)C1=N (stereo not drawn)	65
CC(C)C[C@@H]1CNC(=N)N1C[C@@H]1CCCN1CCN1C[C@@H]([C@H](C)O)N(CC2CCC(C(C)(C)C)CC2)C1=N (stereo partly drawn)	80
CCC[C@@H]1CN([C@H](CC2CCCCC2)CN2CCC[C@H]2CN2C(=N)NC[C@H]2C(C)C)C(=N)N1CC	50
CCC[C@@H]1CN([C@H](CC2CCCCC2)CN2CCC[C@H]2CN2C(=N)NC[C@H]2C(C)C)C(=N)N1	35
CC(C)C[C@@H]1CNC(=N)N1C[C@@H]1CCCN1C[C@H](Cc1ccccc1)N1C[C@@H]([C@H](C)O)N(CC2CCC(C(C)(C)C)CC2)C1=N (stereo partly drawn)	70
CC(C)C[C@@H]1CNC(=N)N1C[C@@H]1CCCN1C[C@@H](Cc1ccccc1)N1CCNC1=N	30

----------
Molecular target: mMC4R (Mus musculus)
Test: AlphaScreen cAMP agonist assay, HEK293 cells stably expressing mMC4R

molecule	EC50
CC(C)C[C@@H]1CNC(=N)N1C[C@@H]1CCCN1C[C@@H](CC1CCCCC1)N1CCNC1=N [Compound 2718.012]	> 1000 µM
CCC[C@@H]1CN([C@H](CC2CCCCC2)CN2CCC[C@H]2CN2C(=N)NC[C@H]2C(C)C)C(=N)N1 [Compound 2718.015]	> 1000 µM
CC(C)CC1CNC(=N)N1CC1CCCN1CC(C)N1CC(C(C)O)N(CC2CCC(C(C)(C)C)CC2)C1=N (stereo not shown) [Compound 2718.061]	> 1000 µM
CCC[C@@H]1CN([C@H](CC2CCCCC2)CN2CCC[C@H]2CN2C(=N)NC[C@H]2C(C)C)C(=N)N1CC [Compound 2718.014]	> 1000 µM
